The reader will find reported Amount in urine collected for 10 h after consumption of cooked beef values listed item by item below.
# CONDITION DESCRIPTION: Subject S-014; Mean ± SD of 3 independent measurements
A number alone suffices; assume ng.

{"COMPOUND": "Cn1c(N)nc2ncc(-c3ccc(O)cc3)cc21 [4'-HO-PhIP]", "QUANTITATIVE READOUT": 18.4}
{"COMPOUND": "Cn1c(N(O)[C@@H]2O[C@H](C(=O)O)[C@@H](O)[C@H](O)[C@H]2O)nc2ncc(-c3ccccc3)cc21 [HONH-PhIP-N^2-GI]", "QUANTITATIVE READOUT": 1274}
{"COMPOUND": "Cn1c(=NO)n([C@@H]2O[C@H](C(=O)O)[C@@H](O)[C@H](O)[C@H]2O)c2ncc(-c3ccccc3)cc21 [HONH-PhIP-N3-GI]", "QUANTITATIVE READOUT": 89.5}

QUERY: Consider the compound Cn1c(N)nc2ncc(-c3ccccc3)cc21 [PhIP] and give its measured Amount in urine collected for 10 h after consumption of cooked beef.
RESULT: 8.9

QUERY: Which value of Amount in urine collected for 10 h after consumption of cooked beef has been reported for Cc1cnc2ccc3c(nc(N)n3C)c2n1 [MeIQx] in the records?
RESULT: 20.6

----------
# CONDITION DESCRIPTION: Subject S-013; metabolites as % of dose of parent MeIQx or PhIP
Quick rule: % Dose in urine collected for 10 h after consumption of cooked beef of at least 7 % Dose means Yes, below that means No.

{"TEST SMILES": "Cn1c(N)nc2ncc(-c3ccccc3)cc21", "LABEL": "No"}

QUERY: Determine whether measured % Dose in urine collected for 10 h after consumption of cooked beef meets or exceeds 7 % Dose for Cn1c(=NO)n([C@@H]2O[C@H](C(=O)O)[C@@H](O)[C@H](O)[C@H]2O)c2ncc(-c3ccccc3)cc21
RESULT: No

QUERY: Record Cn1c(N)nc2ncc(-c3ccc(O)cc3)cc21 ; criterion: % Dose in urine collected for 10 h after consumption of cooked beef no lower than 7 % Dose. Met?
RESULT: No

QUERY: Dear colleague, could you confirm whether Cn1c(N(O)[C@@H]2O[C@H](C(=O)O)[C@@H](O)[C@H](O)[C@H]2O)nc2ncc(-c3ccccc3)cc21 has % Dose in urine collected for 10 h after consumption of cooked beef at or above 7 % Dose?
RESULT: Yes

QUERY: hey, is % Dose in urine collected for 10 h after consumption of cooked beef for this one >= 7 % Dose? Cc1cnc2ccc3c(nc(N)n3C)c2n1
RESULT: No

----------
# CONDITION DESCRIPTION: Subject S-020; metabolites as % of dose of parent MeIQx or PhIP
EXPERIMENTAL READOUT: % Dose in urine collected for 10 h after consumption of cooked beef
In your response, the unit should come after the numeric value.

Field: example entries. Status: answers known.
{"TEST SMILES": "Cn1c(N(O)[C@@H]2O[C@H](C(=O)O)[C@@H](O)[C@H](O)[C@H]2O)nc2ncc(-c3ccccc3)cc21", "RESULT": "24.6 % Dose"}
{"TEST SMILES": "Cn1c(N)nc2ncc(-c3ccccc3)cc21", "RESULT": "0.4 % Dose"}
{"TEST SMILES": "Cn1c(=NO)n([C@@H]2O[C@H](C(=O)O)[C@@H](O)[C@H](O)[C@H]2O)c2ncc(-c3ccccc3)cc21", "RESULT": "2.8 % Dose"}
{"TEST SMILES": "Cc1cnc2ccc3c(nc(N)n3C)c2n1", "RESULT": "5.6 % Dose"}

Now for another entry.
QUERY: Entry under review: Cn1c(N)nc2ncc(-c3ccc(O)cc3)cc21 . Reported % Dose in urine collected for 10 h after consumption of cooked beef?
RESULT: 0.7 % Dose
